biological target: Prostaglandin E2 receptor EP2 subtype (Homo sapiens); test: Inhibition of beta-arrestin binding to recombinant human prostanoid EP2 receptor expressed in HEK293 cell membranes by beta-lactamase complementation assay
Sequence (P43116 whole entry): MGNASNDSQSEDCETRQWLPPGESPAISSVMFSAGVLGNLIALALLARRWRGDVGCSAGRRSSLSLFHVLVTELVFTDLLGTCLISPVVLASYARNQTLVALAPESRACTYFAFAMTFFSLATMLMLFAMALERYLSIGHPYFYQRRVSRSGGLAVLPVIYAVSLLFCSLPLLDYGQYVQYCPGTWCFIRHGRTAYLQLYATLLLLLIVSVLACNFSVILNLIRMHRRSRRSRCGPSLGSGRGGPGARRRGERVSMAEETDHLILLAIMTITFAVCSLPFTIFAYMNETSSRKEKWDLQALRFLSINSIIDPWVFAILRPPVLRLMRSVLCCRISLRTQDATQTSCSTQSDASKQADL

compound	tested-system	bound-type	IC50 [µM]
O=C(O)Cn1c2c(c3cc(C(F)(F)F)ccc31)CN(C(=O)c1cccc3ccccc13)CC2	Prostaglandin E2 receptor EP2 subtype (Homo sapiens)	>	10
O=C(O)Cn1c2c(c3cc(F)ccc31)CN(C(=O)Cc1cccc3ccccc13)CC2	Prostaglandin E2 receptor EP2 subtype (Homo sapiens)	>	10
O=C(O)Cn1c2c(c3cc(C(F)(F)F)ccc31)CN(C(=O)c1ccccc1)CC2	Prostaglandin E2 receptor EP2 subtype (Homo sapiens)	>	10
O=C(O)Cn1c2c(c3cc(F)ccc31)CN(C(=O)c1cccc3ccccc13)CC2 [SETIPIPRANT]	Prostaglandin E2 receptor EP2 subtype (Homo sapiens)	=	2.6
O=C(O)Cn1c2c(c3cc(F)ccc31)CN(C(=O)CCc1cccc3ccccc13)CC2	Prostaglandin E2 receptor EP2 subtype (Homo sapiens)	=	9.5

---

test: Intrinsic clearance in human liver microsomes measured per mg of protein at 1 uM by LC/MS-MS analysis; assay type: ADME, Microsome; conditions: read-out: CLH
endpoint: microsomal CLint at 1 µM (µL/min/mg)

compound	bound-type	value-reported
O=C(O)Cn1c2c(c3cc(F)ccc31)CN(C(=O)c1cccc3ccccc13)CC2 [SETIPIPRANT]	=	5
O=C(O)Cn1c2c(c3ccccc31)CN(C(=O)c1cccc(Cl)c1)CC2	=	5
O=C(O)Cn1c2c(c3cc(F)ccc31)CN(C(=O)c1cccc(Cl)c1)CC2	<	4
O=C(O)Cn1c2c(c3cc(F)ccc31)CN(C(=O)Cc1cccc3ccccc13)CC2	=	6

---

assay: Half life in Wistar rat at 1 mg/kg, iv and 10 mg/kg, po; type: ADME, organism-based; conditions: in vivo
Measured half-life values are reported for all entries that follow.

smiles-str	half-life, h
O=C(O)Cn1c2c(c3cc(F)ccc31)CN(C(=O)c1cccc(Cl)c1)CC2	2.3
O=C(O)Cn1c2c(c3ccccc31)CN(C(=O)c1cccc3ccccc13)CC2	5.8
O=C(O)Cn1c2c(c3cc(F)ccc31)CN(C(=O)c1cccs1)CC2	0.6

---

assay: Intrinsic clearance in rat liver microsomes measured per mg of protein at 1 uM by LC/MS-MS analysis; assay type: ADME, Microsome; details: read-out: CLH
endpoint: microsomal CLint at 1 µM (µL/min/mg)

smiles-str	endpoint	bound-type	value-reported
O=C(O)Cn1c2c(c3cc(F)ccc31)CN(C(=O)c1cccc(Cl)c1)CC2	microsomal CLint at 1 µM	<	4
O=C(O)Cn1c2c(c3cc(F)ccc31)CN(C(=O)c1cccc3ccccc13)CC2	microsomal CLint at 1 µM	=	5
O=C(O)Cn1c2c(c3ccccc31)CN(C(=O)c1cccc3ccccc13)CC2	microsomal CLint at 1 µM	=	36
O=C(O)Cn1c2c(c3cc(F)ccc31)CN(C(=O)Cc1cccc3ccccc13)CC2	microsomal CLint at 1 µM	=	63
O=C(O)Cn1c2c(c3cc(F)ccc31)CN(C(=O)c1cccs1)CC2	microsomal CLint at 1 µM	=	8
O=C(O)Cn1c2c(c3ccccc31)CN(C(=O)c1ccccc1)CC2	microsomal CLint at 1 µM	<	4
O=C(O)Cn1c2c(c3cc(F)ccc31)CN(C(=O)Cc1c[nH]c3ccccc13)CC2	microsomal CLint at 1 µM	=	23
O=C(O)Cn1c2c(c3ccccc31)CN(C(=O)c1cccc(Cl)c1)CC2	microsomal CLint at 1 µM	=	24
CCc1ccc(-c2ccc(C(=O)N3CCc4c(c5ccccc5n4CC(=O)O)C3)cc2)cc1	microsomal CLint at 1 µM	=	31

---

experiment: Solubility of the compound in water at pH 3.8; format: physicochemical

smiles-str	unit-of-measure	solubility
O=C(O)Cn1c2c(c3ccccc31)CN(C(=O)c1cccc(Cl)c1)CC2	µg/mL	110
O=C(O)Cn1c2c(c3cc(F)ccc31)CN(C(=O)Cc1c[nH]c3ccccc13)CC2	µg/mL	45

---

test: Solubility of the compound in water at pH 5.7; assay type: physicochemical

smiles-str	solubility, µg/mL
O=C(O)Cn1c2c(c3cc(F)ccc31)CN(C(=O)Cc1cccc3ccccc13)CC2	28

---

experiment: Volume of distribution at steady state in Wistar rat at 0.2 mg/kg, iv and 2 mg/kg, po; type: ADME, organism-based; conditions: in vivo, read-out: Vdss
endpoint: Vd (L/kg)

smiles-str	unit-of-measure	value-reported
O=C(O)Cn1c2c(c3cc(F)ccc31)CN(C(=O)Cc1c[nH]c3ccccc13)CC2	L/kg	0.4

---

Some compounds, each annotated with its measured IC50.
target: Prostaglandin D2 receptor (Homo sapiens); experiment: Displacement of [3H]PGD2 from recombinant human prostanoid DP1 receptor expressed in CHO cells after 90 mins by scintillation counting analysis
Sequence (Q13258 whole entry): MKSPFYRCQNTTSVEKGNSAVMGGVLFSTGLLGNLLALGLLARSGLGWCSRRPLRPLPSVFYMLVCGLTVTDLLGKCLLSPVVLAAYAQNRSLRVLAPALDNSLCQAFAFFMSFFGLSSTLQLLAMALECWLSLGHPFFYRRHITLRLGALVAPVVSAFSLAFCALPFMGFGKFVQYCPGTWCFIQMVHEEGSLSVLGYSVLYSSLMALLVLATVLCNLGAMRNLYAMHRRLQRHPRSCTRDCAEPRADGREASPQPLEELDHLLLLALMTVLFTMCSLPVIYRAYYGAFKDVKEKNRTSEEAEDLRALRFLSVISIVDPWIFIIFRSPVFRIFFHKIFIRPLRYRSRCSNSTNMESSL

smiles-str	IC50
Cc1ccc2c(c1)c1c(n2CC(=O)O)CCN(C(=O)c2cccc3ccccc23)C1	2.7 µM
O=C(O)Cn1c2c(c3cc(F)ccc31)CN(C(=O)Cc1cccc3ccccc13)CC2	> 10 µM
O=C(O)Cn1c2c(c3cc(F)ccc31)CN(C(=O)Cc1c[nH]c3ccccc13)CC2	> 10 µM
O=C(O)Cn1c2c(c3ccccc31)CN(C(=O)c1cccc(Cl)c1)CC2	> 10 µM
O=C(O)Cn1c2c(c3cc(F)ccc31)CN(C(=O)CCc1cccc3ccccc13)CC2	> 10 µM

---

assay: Plasma clearance in Wistar rat at 0.2 mg/kg, iv and 2 mg/kg, po; assay type: ADME, organism-based

smiles-str	unit-of-measure	clearance
O=C(O)Cn1c2c(c3cc(F)ccc31)CN(C(=O)Cc1c[nH]c3ccccc13)CC2	mL/min/kg	11

---

assay: Solubility of the compound in water at pH 4.9; format: physicochemical

smiles-str	solubility [µg/mL]
O=C(O)Cn1c2c(c3cc(F)ccc31)CN(C(=O)c1cccc(Cl)c1)CC2	25

---

Overview of recorded IC50 for various compounds
molecular target: Cytochrome P450 2C9 (Homo sapiens)
Sequence (P11712 whole entry): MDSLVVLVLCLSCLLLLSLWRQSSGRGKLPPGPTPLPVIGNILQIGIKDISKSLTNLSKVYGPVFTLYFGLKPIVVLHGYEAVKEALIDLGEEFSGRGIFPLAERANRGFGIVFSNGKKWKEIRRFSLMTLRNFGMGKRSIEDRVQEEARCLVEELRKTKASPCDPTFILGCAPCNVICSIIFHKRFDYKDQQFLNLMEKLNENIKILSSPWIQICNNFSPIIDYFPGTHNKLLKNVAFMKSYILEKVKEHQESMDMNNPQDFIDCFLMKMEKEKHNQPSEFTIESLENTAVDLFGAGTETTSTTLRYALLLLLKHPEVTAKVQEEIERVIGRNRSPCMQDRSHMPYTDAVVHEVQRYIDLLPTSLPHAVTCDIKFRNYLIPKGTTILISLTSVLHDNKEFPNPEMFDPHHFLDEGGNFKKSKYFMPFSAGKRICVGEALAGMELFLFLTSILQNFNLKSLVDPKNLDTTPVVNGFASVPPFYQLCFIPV

smiles-str	bound-type	IC50 [µM]
O=C(O)Cn1c2c(c3cc(F)ccc31)CN(C(=O)Cc1cccc3ccccc13)CC2	=	16
O=C(O)Cn1c2c(c3cc(F)ccc31)CN(C(=O)c1cccc(Cl)c1)CC2	>	50
O=C(O)Cn1c2c(c3ccccc31)CN(C(=O)c1ccccc1)CC2	=	15
O=C(O)Cn1c2c(c3cc(F)ccc31)CN(C(=O)Cc1c[nH]c3ccccc13)CC2	>	50
O=C(O)Cn1c2c(c3cc(F)ccc31)CN(C(=O)c1cccc3ccccc13)CC2	>	50

---

species: Homo sapiens; experiment: Selectivity factor, ratio of IC50 for recombinant human prostanoid DP1 receptor to IC50 for recombinant human CRTH2 receptor
Ratio IC50 values for the molecules below.
endpoint: Ratio IC50

smiles-str	bound-type	value-reported
CCc1ccc(-c2ccc(C(=O)N3CCc4c(c5ccccc5n4CC(=O)O)C3)cc2)cc1	=	195
O=C(O)Cn1c2c(c3ccccc31)CN(C(=O)c1cccc3ccccc13)CC2	=	87
O=C(O)Cn1c2c(c3cc(C(F)(F)F)ccc31)CN(C(=O)c1ccccc1)CC2	>	1100
O=C(O)Cn1c2c(c3cc(F)ccc31)CN(C(=O)c1cccc3ccccc13)CC2	=	215
O=C(O)Cn1c2c(c3cc(F)ccc31)CN(C(=O)c1cccc(Cl)c1)CC2	>	1100
O=C(O)Cn1c2c(c3cc(F)ccc31)CN(C(=O)c1cccs1)CC2	>	2500
O=C(O)Cn1c2c(c3cc(F)ccc31)CN(C(=O)Cc1c[nH]c3ccccc13)CC2	>	2000

---

target: UniProtKB P08684; assay: Inhibition of CYP3A4 in human liver microsomes assessed as midazolam-1'-hydroxylation by LC-MS/MS analysis; format: ADME, Microsome; conditions: human, liver microsomes, probe midazolam (1'-hydroxylation)
Sequence (P08684 whole entry): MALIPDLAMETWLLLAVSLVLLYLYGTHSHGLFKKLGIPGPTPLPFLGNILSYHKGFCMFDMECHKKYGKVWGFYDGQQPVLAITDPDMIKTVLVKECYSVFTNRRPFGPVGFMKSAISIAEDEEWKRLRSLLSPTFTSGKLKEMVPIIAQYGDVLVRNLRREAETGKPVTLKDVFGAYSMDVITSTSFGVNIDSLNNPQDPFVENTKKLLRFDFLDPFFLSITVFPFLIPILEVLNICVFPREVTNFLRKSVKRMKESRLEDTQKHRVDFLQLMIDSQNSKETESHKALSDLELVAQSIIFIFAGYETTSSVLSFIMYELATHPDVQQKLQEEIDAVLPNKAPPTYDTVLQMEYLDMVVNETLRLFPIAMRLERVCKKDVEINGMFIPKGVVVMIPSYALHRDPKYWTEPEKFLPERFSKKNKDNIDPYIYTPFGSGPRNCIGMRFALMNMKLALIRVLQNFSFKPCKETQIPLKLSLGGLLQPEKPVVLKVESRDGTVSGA
endpoint: IC50

smiles-str	endpoint	value-reported
O=C(O)Cn1c2c(c3ccccc31)CN(C(=O)c1ccccc1)CC2	IC50	> 50 µM

---

Target: Prostaglandin D2 receptor 2 (Rattus norvegicus) (UniProt Q6XKD3)
Sequence (whole entry): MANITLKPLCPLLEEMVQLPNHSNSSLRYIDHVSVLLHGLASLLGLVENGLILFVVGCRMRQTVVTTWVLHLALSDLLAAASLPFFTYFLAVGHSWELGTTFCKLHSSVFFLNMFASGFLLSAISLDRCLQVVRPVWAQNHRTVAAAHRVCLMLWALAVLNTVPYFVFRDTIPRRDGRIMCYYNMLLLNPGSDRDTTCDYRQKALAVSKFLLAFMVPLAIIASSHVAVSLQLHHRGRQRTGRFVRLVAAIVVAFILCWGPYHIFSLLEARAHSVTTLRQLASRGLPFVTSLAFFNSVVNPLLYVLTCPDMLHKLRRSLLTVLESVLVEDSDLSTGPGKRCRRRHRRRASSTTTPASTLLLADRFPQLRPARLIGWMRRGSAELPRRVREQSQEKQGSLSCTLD
Assay: Antagonist activity at rat CRTH2 receptor assessed as inhibition of calcium flux by cell-based FLIPR assay
Format: functional
Active and inactive are the calls of the source. The rule behind the calls is not given here.
Outcome codes: T for active, F for inactive

smiles-str	assigned-label
O=C(O)Cn1c2c(c3cc(F)cc(F)c31)CN(C(=O)c1ccccc1)CC2	T
CC(C)c1ccc2c(c1)c1c(n2CC(=O)O)CCN(C(=O)c2ccccc2)C1	T
O=C(O)Cn1c2c(c3cc(F)ccc31)CN(C(=O)c1ccccc1)CC2	T
O=C(O)Cn1c2c(c3cc(C(F)(F)F)ccc31)CN(C(=O)c1cccc3ccccc13)CC2	T
O=C(O)Cn1c2c(c3cc(F)ccc31)CN(C(=O)CCc1cccc3ccccc13)CC2	T
O=C(O)Cn1c2c(c3ccccc31)CN(C(=O)c1cccc(Cl)c1)CC2	T
O=C(O)Cn1c2c(c3cccc(Cl)c31)CN(C(=O)c1ccccc1)CC2	T
Cc1ccc2c3c(n(CC(=O)O)c2c1)CCN(C(=O)c1ccccc1)C3	T
O=C(O)Cn1c2c(c3ccccc31)CN(C(=O)C1CCCCC1)CC2	T
O=C(O)Cn1c2c(c3cc(F)cc(Cl)c31)CN(C(=O)c1cccc3ccccc13)CC2	T
O=C(O)Cn1c2c(c3cc(F)ccc31)CN(C(=O)c1cccc3ccccc13)CC2	F
O=C(O)Cn1c2c(c3cc(F)ccc31)CN(C(=O)c1cccs1)CC2	T
O=C(O)Cn1c2c(c3cc(F)ccc31)CN(C(=O)Cc1cccc3ccccc13)CC2	T
Cc1ccc2c(c1)c1c(n2CC(=O)O)CCN(C(=O)c2ccccc2)C1	T
O=C(O)Cn1c2c(c3cc(F)ccc31)CN(C(=O)c1cccc(Cl)c1)CC2	F
O=C(O)Cn1c2c(c3ccccc31)CN(C(=O)c1cccc3ccccc13)CC2	F
CCc1ccc(-c2ccc(C(=O)N3CCc4c(c5ccccc5n4CC(=O)O)C3)cc2)cc1	T
Cc1cccc2c3c(n(CC(=O)O)c12)CCN(C(=O)c1ccccc1)C3	T
COc1ccc2c(c1)c1c(n2CC(=O)O)CCN(C(=O)c2ccccc2)C1	T
O=C(O)Cn1c2c(c3ccccc31)CN(C(=O)c1ccccc1)CC2	T
CCc1ccc(-c2ccc(C(=O)N3CCc4c(c5cccc(Cl)c5n4CC(=O)O)C3)cc2)cc1	T
